procedure.details: In vitro cytotoxicity, XTT assay, HT29
settings: human
property: CC50 at 48 h (µM)
Numbers only, in µM.

Q: Return CC50 at 48 h for the following compound: O=C(Nc1ccc([N+](=O)[O-])cc1)Nc1nc([N+](=O)[O-])cs1
Result: 622

---

Can you tell me IC50 for the items I'm about to list?
system: G6PD::6PGL fused enzyme (Giardia intestinalis)
procedure.details: Enzymatic inhibition assay (concentration-dependent inactivation) of G6PD::6PGL
Type: biochemical, Giardia lamblia
settings: read-out: G6PD::6PGL IC50; 0.2 mg/mL enzyme, 0–800 μM compound, 2 h, 37 °C
Numbers only, in µM.

# molecule, unit.text, numeric.readout
rows = [
    ("CCCCOc1ccc(NC(=O)Nc2nc([N+](=O)[O-])cs2)cc1 [CNZ-7]", "µM", 150),
    ("CCCCCC(=O)Nc1nc([N+](=O)[O-])cs1 [FLP-2]", "µM", 256),
]

Moving on to the next molecule.
Q: Return IC50 for the following molecule: O=C(Nc1ccc([N+](=O)[O-])cc1)Nc1nc([N+](=O)[O-])cs1 [CNZ-8]
Result: 80

---

procedure.details: In vitro cytotoxicity, XTT assay, HT29
settings: human, HT29 cells
Experimental: An XTT cell proliferation assay determined the viability. The cytotoxicity assay was performed using human cell lines Caco-2 (ATCC HTB-37) and HT29 (ATCC HHTB-38) with a Cell Proliferation Kit II (XTT; St Louis, MO, USA). […] After 48 h of incubation at 37 °C in an atmosphere of 5% CO2, the viability of cells was determined. […] The CCI50 values were determined using the nonlinear regression function of GraphPad Prism version 6.04 for Windows.
property: CC50 at 48 h (mM)
Answers are plain numbers, in mM.

# compound.smiles, property, unit.text, numeric.readout
data = [
    ("CCCCCC(=O)Nc1nc([N+](=O)[O-])cs1", "CC50 at 48 h", "mM", 1.91),
]

Moving on to the next molecule.
Q: Return CC50 at 48 h for the following molecule: CCCCOc1ccc(NC(=O)Nc2nc([N+](=O)[O-])cs2)cc1
Result: 0.529

---

procedure.details: in vitro
settings: human, Caco-2
property: selectivity ratio at 48 h
One number for each entry.

These solved cases illustrate the format of a correct answer.
# compound, property, numeric.readout
records = [
    ("CCCCOc1ccc(NC(=O)Nc2nc([N+](=O)[O-])cs2)cc1", "selectivity ratio at 48 h", 74),
    ("O=C(Nc1ccc([N+](=O)[O-])cc1)Nc1nc([N+](=O)[O-])cs1", "selectivity ratio at 48 h", 41),
    ("CCCCCC(=O)Nc1nc([N+](=O)[O-])cs1", "selectivity ratio at 48 h", 208),
]

Moving on to the next compound.
Q: Return selectivity ratio at 48 h for the following compound: CC(=O)Oc1ccccc1C(=O)Nc1ncc([N+](=O)[O-])s1 [Nitazoxanide, reference compound]
Result: 7

---

system: G6PD::6PGL fused enzyme (Giardia intestinalis)
procedure.details: Screening of in-house library on G6PD::6PGL activity at 400 µM
Type: biochemical, Giardia lamblia
settings: read-out: G6PD::6PGL Inhibition (%) at (400 μM), 400 μM compound, 0.2 mg/mL enzyme, 2 h, 37 °C
property: inhibition at 400 µM (%)
One number for each entry, in %.

These solved cases illustrate the format of a correct answer.
# compound, system, inhibition at 400 µM [%]
data = [
    ("O=C(Nc1ccc([N+](=O)[O-])cc1)Nc1nc([N+](=O)[O-])cs1", "G6PD::6PGL fused enzyme (Giardia intestinalis)", 75),
    ("CC(=O)Oc1ccccc1C(=O)Nc1ncc([N+](=O)[O-])s1 [Nitazoxanide, reference compound]", "G6PD::6PGL fused enzyme (Giardia intestinalis)", 100),
    ("CCCCCC(=O)Nc1nc([N+](=O)[O-])cs1", "G6PD::6PGL fused enzyme (Giardia intestinalis)", 89),
]

Moving on to the next compound.
Q: Return inhibition at 400 µM for the following compound: CCCCOc1ccc(NC(=O)Nc2nc([N+](=O)[O-])cs2)cc1
Result: 85

---

Can you tell me inhibition at 200 µM for the items I'm about to list?
system: G6PD::6PGL fused enzyme (Giardia intestinalis, UniProt A8BWM5)
Sequence (A8BWM5 entry or part of it): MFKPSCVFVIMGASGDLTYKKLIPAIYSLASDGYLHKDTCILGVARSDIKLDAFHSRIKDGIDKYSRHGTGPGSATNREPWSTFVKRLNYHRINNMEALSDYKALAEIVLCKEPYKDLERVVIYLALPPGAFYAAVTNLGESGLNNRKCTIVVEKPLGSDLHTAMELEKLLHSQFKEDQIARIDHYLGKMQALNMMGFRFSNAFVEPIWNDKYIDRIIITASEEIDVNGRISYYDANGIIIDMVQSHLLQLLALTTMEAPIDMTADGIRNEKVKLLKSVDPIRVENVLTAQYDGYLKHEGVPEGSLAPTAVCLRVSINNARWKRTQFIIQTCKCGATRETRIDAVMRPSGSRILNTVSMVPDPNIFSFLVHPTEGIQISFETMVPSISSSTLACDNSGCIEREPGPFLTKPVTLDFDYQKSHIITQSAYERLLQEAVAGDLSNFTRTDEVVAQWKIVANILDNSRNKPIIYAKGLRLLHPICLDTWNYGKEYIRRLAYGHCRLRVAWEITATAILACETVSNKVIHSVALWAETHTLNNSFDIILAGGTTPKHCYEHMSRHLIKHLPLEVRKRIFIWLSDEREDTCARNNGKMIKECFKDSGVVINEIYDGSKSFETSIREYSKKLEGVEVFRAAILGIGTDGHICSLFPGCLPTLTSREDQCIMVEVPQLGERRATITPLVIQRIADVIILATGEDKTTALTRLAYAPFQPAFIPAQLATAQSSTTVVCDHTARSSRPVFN
procedure.details: Enzymatic inhibition assay (concentration-dependent inactivation) of G6PD::6PGL
Type: biochemical, Giardia lamblia
settings: 2 h, read-out: Loss of initial G6PD::6PGL activity
One number for each entry, in %.

These solved cases illustrate the format of a correct answer.
# compound.smiles, unit.text, inhibition at 200 µM
rows = [
    ("CCCCOc1ccc(NC(=O)Nc2nc([N+](=O)[O-])cs2)cc1", "%", 60),
    ("CCCCCC(=O)Nc1nc([N+](=O)[O-])cs1", "%", 40),
    ("O=C(Nc1ccc([N+](=O)[O-])cc1)Nc1nc([N+](=O)[O-])cs1", "%", 80),
]

Moving on to the next molecule.
Q: Give the observed inhibition at 200 µM of O=C1NC(=O)C(=Cc2ccc(OCc3ccccc3)cc2)C(=O)N1 for G6PD::6PGL fused enzyme (Giardia intestinalis, UniProt A8BWM5).
Result: 100
